# Target Of Assay: Human HER3, endogenous, on human cancer cell lines (human, UniProt P21860 20-1342); further: test concentration or dose not given here
# Method Summary: cell-based or functional assay
Property Label: SK-Br-3 pAkt (S473) % inhibition (%)
Supply the numeric figure in %, leaving out any unit text.

Item: MOR09825 (antibody, human IgG1, kappa, V domains shown, tested as IgG) VH: QVQLVESGGGLVQPGGSLRLSCAASGFTFSSYAMSWVRQAPGKGLEWVSAINSQGKSTYYADSVKGRFTISRDNSKNTLYLQMNSLRAEDTAVYYCARWGDEGFDIWGQGTLVTVSS VL: DIQMTQSPSSLSASVGDRVTITCRASQGISNWLAWYQQKPGKAPKLLIYGASSLQSGVPSRFSGSGSGTDFTLTISSLQPEDFAVYYCQQYSSFPTTFGQGTKVEIKR | SK-Br-3 pAkt (S473) % inhibition: 91

// SK-Br-3 pAkt (S473) % inhibition lookup, binder = MOR09974 (antibody, human IgG1, kappa, V domains shown, tested as IgG) VH: QVQLVESGGGLVQPGGSLRLSCAASGFTFSSYAMSWVRQAPGKGLEWVSVINPSGNFTNYADSVKGRFTISRDNSKNTLYLQMNSLRAEDTAVYYCARWGDEGFDIWGQGTLVTVSS VL: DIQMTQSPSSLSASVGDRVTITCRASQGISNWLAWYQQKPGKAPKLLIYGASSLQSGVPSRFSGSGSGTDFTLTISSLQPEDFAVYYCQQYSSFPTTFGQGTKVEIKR , result: 85

SK-Br-3 pAkt (S473) % inhibition measured on MOR09823 (antibody, human IgG1, kappa, V domains shown, tested as IgG) VH: QVQLVESGGGLVQPGGSLRLSCAASGFTFSSYAMSWVRQAPGKGLEWVSVTGAVGRTYYPDSVKGRFTISRDNSKNTLYLQMNSLRAEDTAVYYCARWGDEGFDIWGQGTLVTVSS VL: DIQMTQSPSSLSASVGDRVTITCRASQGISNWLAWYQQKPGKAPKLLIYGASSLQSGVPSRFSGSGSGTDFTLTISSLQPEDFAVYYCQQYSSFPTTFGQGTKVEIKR = 92

MOR10703 (antibody, human IgG1, kappa, V domains shown, tested as IgG) VH: EVQLLESGGGLVQPGGSLRLSCAASGFTFSSYAMSWVRQAPGKGLEWVSAINSQGKSTYYADSVKGRFTISRDNSKNTLYLQMNSLRAEDTAVYYCARWGDEGFDIWGQGTLVTVSS VL: DIQMTQSPSSLSASVGDRVTITCRASQGISNWLAWYQQKPGKAPKLLIYGASSLQSGVPSRFSGSGSGTDFTLTISSLQPEDFATYYCQQYSSFPTTFGQGTKVEIKR yielded SK-Br-3 pAkt (S473) % inhibition of 89
